# test_details: High Content Imaging Cell-Based qHTS for Inhibitors of the mTORC1 Signaling Pathway in MEF (Tsc2-/-, p53-/-) Cells (AID 2666);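 note: percent of cells scored positive for phospho-rpS6 Ser235/236 immunostaining by imaging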
# reported_conditions: series mostly up to 38.3 µM
Results filed as inconclusive are left out. Active and inactive are the calls of the source. Calls come from the whole dose curve; as a rule, active = well fitted inhibition curve with a large enough effect; inconclusive = small, poorly fitted or top-dose-only effect; inactive = flat fitted curve, though single readings scatter.
Pick from class 1 (active), class 0 (inactive) when you respond.

[[record]]
compound = "CCCNC(C)C(=O)Nc1ccccc1C (stereo not drawn)"
group = "class 0"

[[record]]
compound = "CCOC(=O)c1cnc2c(cnn2CC)c1NN=C(C)C"
group = "class 0"

[[record]]
compound = "CC1=NS(=O)(=O)c2cc(Cl)ccc2N1"
group = "class 0"

[[record]]
compound = "CC(=O)[C@]1(O)Cc2c(O)c3c(c(O)c2[C@@H](O[C@H]2C[C@H](N)[C@H](O)[C@H](C)O2)C1)C(=O)c1ccccc1C3=O"
group = "class 1"

[[record]]
compound = "Nc1c2c(nc3ccccc13)CCCC2O (stereo not drawn)"
group = "class 0"

[[record]]
compound = "COc1ccc([C@@H]2Sc3ccccc3N(CCN(C)C)C(=O)[C@@H]2OC(C)=O)cc1"
group = "class 0"

[[record]]
compound = "CC(C)COCC(CN(Cc1ccccc1)c1ccccc1)N1CCCC1 (stereo not drawn)"
group = "class 0"

[[record]]
compound = "CCC(=O)c1ccc2c(c1)N(CCCN(C)C)c1ccccc1S2"
group = "class 0"

[[record]]
compound = "O=C1CC2(CCCC2)CC(=O)N1CCCCN1CCN(c2ncccn2)CC1"
group = "class 0"

[[record]]
compound = "NC(Cc1ccc(Cl)cc1)C(=O)O (stereo not drawn)"
group = "class 0"


Req: Recorded call for `Fc1ccc(C(c2ccc(F)cc2)N2CCN(C/C=C/c3ccccc3)CC2)cc1` ?
Resp: class 0

Req: Recorded call for `CN/C(=C\[N+](=O)[O-])NCCSCc1ccc(CN(C)C)o1` ?
Resp: class 0

Req: Recorded call for `NC(=O)c1ncn([C@@H]2O[C@H](CO)[C@@H](O)[C@H]2O)c1O` ?
Resp: class 0

Req: Recorded call for `C[C@@H](O)[C@H]1C(=O)N2C(C(=O)O)=C(SCCN=CN)C[C@H]12` ?
Resp: class 0

Req: Recorded call for `CCCOc1ccccc1-c1nc2n[nH]nc2c(=O)[nH]1` ?
Resp: class 0

Req: Recorded call for `CCN(CC)CCOCCOC(=O)C1(c2ccccc2)CCCC1` ?
Resp: class 0

Req: Recorded call for `C[C@H](CS)C(=O)N1CCC[C@H]1C(=O)O` ?
Resp: class 0

###

# Tested on: PAD
# test_details: qHTS profiling for inhibitors of Plasmodium falciparum proliferation (AID 504749); note: nearly all actives have a fitted effect of over 60% in size
# reported_conditions: P. falciparum in erythrocytes, SYBR Green DNA, 72 h; series mostly up to 28.7 µM
Results filed as inconclusive are left out. Activity calls are given as the source filed them. Calls follow the shape of the dose curve; as a rule, active = well fitted inhibition curve with a large enough effect; inconclusive = small, poorly fitted or top-dose-only effect; inactive = flat fitted curve, though single readings scatter.
Pick from True (active), False (inactive) when you respond.

[[record]]
compound = "CCN(CC)CC(=O)Nc1c(C)cccc1C"
group = "False"

[[record]]
compound = "CCCOc1ccccc1-c1nc2n[nH]nc2c(=O)[nH]1"
group = "False"

[[record]]
compound = "Nc1ncn([C@@H]2O[C@H](CO)[C@@H](O)[C@H]2O)c(=O)n1"
group = "False"

[[record]]
compound = "OC(CCN1CCCCC1)(c1ccccc1)C1CCCCC1 (stereo unspecified)"
group = "False"

[[record]]
compound = "CC[N+](C)(C)c1cccc(O)c1"
group = "False"


Req: Recorded call for COC(=O)C1=C(C)NC(C)=C(C(=O)OC(C)(C)CN(C)CCC(c2ccccc2)c2ccccc2)C1c1cccc([N+](=O)[O-])c1 (stereo unspecified) ?
Resp: True

Req: Recorded call for `CN(C)C(=O)Oc1cccc([N+](C)(C)C)c1` ?
Resp: False

Req: Recorded call for `NC(=O)N1c2ccccc2C=Cc2ccccc21` ?
Resp: False

Req: Recorded call for `CC(=O)[C@]1(O)Cc2c(O)c3c(c(O)c2[C@@H](O[C@H]2C[C@H](N)[C@H](O)[C@H](C)O2)C1)C(=O)c1ccccc1C3=O` ?
Resp: True

Req: Recorded call for `CCN1CCc2nc(N)oc2CC1` ?
Resp: False

Req: Recorded call for `CCCC(C(=O)OCCN(CC)CC)(c1ccccc1)c1ccccc1` ?
Resp: True

###

# System: TAB113
# test_details: qHTS profiling for inhibitors of Plasmodium falciparum proliferation (AID 504749); note: nearly all actives have a fitted effect of over 60% in size; note: potency is the fitted concentration of half-maximal effect
# reported_conditions: P. falciparum in erythrocytes, SYBR Green DNA, 72 h; series mostly up to 28.7 µM
Records with an inconclusive call do not appear. Activity calls are given as the source filed them. The call rests on the fitted dose curve; in most records, active means well fitted inhibition curve with a large enough effect; inconclusive means small, poorly fitted or top-dose-only effect; inactive means flat fitted curve, though single readings scatter.
quantity_kind: Potency

[[record]]
molecule = "CCN(CC)CCNC(=O)c1cc(S(C)(=O)=O)ccc1OC"
tgt = "TAB113"
value_reported = "inactive"

[[record]]
molecule = "COc1cc(C(=O)OCCCN2CCCN(CCCOC(=O)c3cc(OC)c(OC)c(OC)c3)CC2)cc(OC)c1OC"
tgt = "TAB113"
value_reported = "11.2 µM (active)"

[[record]]
molecule = "NC(Cc1ccc(Cl)cc1)C(=O)O (stereo unspecified)"
tgt = "TAB113"
value_reported = "inactive"

[[record]]
molecule = "Nc1ncn([C@@H]2O[C@H](CO)[C@@H](O)[C@H]2O)c(=O)n1"
tgt = "TAB113"
value_reported = "inactive"

[[record]]
molecule = "CCOC(=O)c1cnc2c(cnn2CC)c1NN=C(C)C"
tgt = "TAB113"
value_reported = "inactive"

[[record]]
molecule = "NS(=O)(=O)c1cc2c(cc1Cl)NC(C1CC3C=CC1C3)NS2(=O)=O (stereo unspecified)"
tgt = "TAB113"
value_reported = "inactive"


Need Potency for each of these molecules.
1. FC(F)(F)c1ccccc1-n1ccnc1
2. COC(=O)[C@H]1[C@H]2C[C@@H]3c4[nH]c5cc(OC)ccc5c4CCN3C[C@H]2C[C@@H](OC(=O)c2cc(OC)c(OC)c(OC)c2)[C@@H]1OC
3. O=C(CCNNC(=O)c1ccncc1)NCc1ccccc1
4. c1cnc(N2CCN(Cc3ccc4c(c3)OCO4)CC2)nc1
5. NC(N)=NC(=O)Cc1c(Cl)cccc1Cl

Resp:
inactive
5.62 µM (active)
inactive
inactive
inactive

###

# tgt: Cytochrome P450 2C9 (Homo sapiens)
# test_details: qHTS Assay for Inhibitors and Substrates of Cytochrome P450 2C9 (AID 883); note: nearly all actives have a fitted effect of over 60% in size
# reported_conditions: recombinant CYP2C9, luciferin-H luminescence, 60 min; series mostly up to 57.1 µM
# Procedure: NIH Molecular Libraries Screening Centers Network [MLSCN] NIH Chemical Genomics Center [NCGC] MLSCN Grant: None NCGC Assay Overview: The P450 gene superfamily is involved in the metabolism and clearance of xenobiotics. […] The luciferin is then measured by luminescence after the addition of a luciferase detection reagent. […] Inhibitors and some substrates limit the production of luciferin, and decrease measured luminescence. […]
Results filed as inconclusive are left out. Active and inactive are the calls of the source. Calls come from the whole dose curve; as a rule, active = well fitted inhibition curve with a large enough effect; inconclusive = small, poorly fitted or top-dose-only effect; inactive = no such curve, though single readings can be large or run the other way.
Pick from yes (active), no (inactive) when you respond.

Some entries whose results are on file:
[[record]]
compound = "CC(=O)Nc1nnc(S(N)(=O)=O)s1"
group = "no"

[[record]]
compound = "NC(N)=NC(=O)Cc1c(Cl)cccc1Cl"
group = "no"

[[record]]
compound = "Brc1c(NC2=NCCN2)ccc2nccnc12"
group = "no"

[[record]]
compound = "Cc1ccc(=O)n(-c2ccccc2)c1"
group = "no"

[[record]]
compound = "CCO/C([O-])=N/c1c[n+](N2CCOCC2)no1"
group = "no"

[[record]]
compound = "COc1ccc2c(c1OC)C(=O)O[C@@H]2[C@H]1c2c(cc3c(c2OC)OCO3)CCN1C"
group = "yes"

[[record]]
compound = "CC1=NS(=O)(=O)c2cc(Cl)ccc2N1"
group = "no"

[[record]]
compound = "Cc1nc2ccccn2c(=O)c1CCN1CCC(C(=O)c2ccc(F)cc2)CC1"
group = "no"


Switching to the query record.
Req: Recorded call for `CC1=C(C)C(=O)C(CCCCC#CCCCC#CCO)=C(C)C1=O` ?
Resp: yes

###

So I've got a bunch of molecules here, and I need their max response values.
# tgt: Retinoic acid receptor RXR-alpha (Homo sapiens) (UniProt P19793)
# Sequence (P19793 whole entry, looked up): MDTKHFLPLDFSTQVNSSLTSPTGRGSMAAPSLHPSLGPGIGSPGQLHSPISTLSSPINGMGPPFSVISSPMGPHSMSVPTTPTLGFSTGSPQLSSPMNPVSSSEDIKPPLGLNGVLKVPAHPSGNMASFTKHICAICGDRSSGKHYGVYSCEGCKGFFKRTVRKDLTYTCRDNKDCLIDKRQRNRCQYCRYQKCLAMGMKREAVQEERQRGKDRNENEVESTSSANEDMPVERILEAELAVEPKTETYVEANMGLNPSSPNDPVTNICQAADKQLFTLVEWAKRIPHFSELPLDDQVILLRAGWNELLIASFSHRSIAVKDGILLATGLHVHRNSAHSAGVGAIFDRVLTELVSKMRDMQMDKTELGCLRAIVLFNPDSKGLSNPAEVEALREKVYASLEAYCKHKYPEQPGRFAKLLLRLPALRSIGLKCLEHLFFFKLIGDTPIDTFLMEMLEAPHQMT
# test_details: qHTS assay for small molecule antagonists of retinoid X receptor alpha signaling (AID 588546);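 note: cells stimulated with 9-cis-retinoic acid as agonist; % is set by controls: 0 for no effect and ±100 for the full control effect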
# reported_conditions: HEK293T RXRa-UAS-bla, beta-lactamase ratio, antagonist mode
Inconclusive results are not listed.
Numbers only, in %.

[[record]]
compound = "C[C@]12C=CC(=O)C=C1CC[C@H]1[C@@H]3C[C@@H](O)[C@](O)(C(=O)CO)[C@@]3(C)C[C@H](O)[C@@]12F"
unit_of_measure = "%"
value_reported = -2.06

[[record]]
compound = "O=c1[nH]c(=O)n([C@H]2C[C@H](O)[C@@H](CO)O2)cc1Br"
unit_of_measure = "%"
value_reported = 7.58

[[record]]
compound = "CC(=O)[C@@]1(O)CC[C@H]2[C@@H]3CCC4=CC(=O)CC[C@]4(C)[C@H]3CC[C@@]21C"
unit_of_measure = "%"
value_reported = -1.98

[[record]]
compound = "Cc1ccc(S(=O)(=O)NC(=O)NN2CCCCCC2)cc1"
unit_of_measure = "%"
value_reported = -7.05

[[record]]
compound = "CCCCNC(=O)NS(=O)(=O)c1ccc(C)cc1"
unit_of_measure = "%"
value_reported = -16.3

[[record]]
compound = "O=C(O)CCCCCCCC(=O)O"
unit_of_measure = "%"
value_reported = 0.796


Need max response for each of these molecules.
1. CN=C(NC#N)NCCSCc1nc[nH]c1C
2. C[C@]12CCC(=O)C=C1CC[C@@H]1[C@@H]2C(=O)C[C@@]2(C)[C@H]1CC[C@]2(O)C(=O)CO

Resp:
1. 4.57
2. -20.1

Req: Would you kindly share the measured max response for `COc1cc(Cc2cnc(N)nc2N)cc(OC)c1OC` ?
Resp: 0.608
